B1: CPEB3 Ribozyme (parent)
chain: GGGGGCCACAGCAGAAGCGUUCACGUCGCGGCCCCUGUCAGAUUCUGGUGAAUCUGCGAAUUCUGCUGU

variants of: B1; test: self-cleavage, relative activity (ratio to wild type); higher = more cleavage; co-transcriptional
Each entry gets class 0 if its self-cleavage stays under 0.3, and class 1 if its self-cleavage is 0.3 or above.

{"MUTATION ANNOTATION": "C29G C66U", "CATEGORY": "class 1"}
{"MUTATION ANNOTATION": "C12U G25C", "CATEGORY": "class 0"}
{"MUTATION ANNOTATION": "G41A G65C", "CATEGORY": "class 0"}
{"MUTATION ANNOTATION": "C12G G65A", "CATEGORY": "class 1"}
{"MUTATION ANNOTATION": "G19C C35A", "CATEGORY": "class 0"}
{"MUTATION ANNOTATION": "C66G U67G", "CATEGORY": "class 1"}
{"MUTATION ANNOTATION": "U49C A51U", "CATEGORY": "class 1"}
{"MUTATION ANNOTATION": "C18G U38G", "CATEGORY": "class 0"}
{"MUTATION ANNOTATION": "C12A C22U", "CATEGORY": "class 0"}
{"MUTATION ANNOTATION": "C12G A42G", "CATEGORY": "class 1"}
{"MUTATION ANNOTATION": "A42U C54G", "CATEGORY": "class 1"}
{"MUTATION ANNOTATION": "G50C C54U", "CATEGORY": "class 1"}
{"MUTATION ANNOTATION": "C33U U49C", "CATEGORY": "class 1"}
{"MUTATION ANNOTATION": "A13C G47U", "CATEGORY": "class 1"}
{"MUTATION ANNOTATION": "G41A U64G", "CATEGORY": "class 1"}
{"MUTATION ANNOTATION": "G30C C39A", "CATEGORY": "class 0"}
{"MUTATION ANNOTATION": "G17U G31C", "CATEGORY": "class 0"}
{"MUTATION ANNOTATION": "U21G G48C", "CATEGORY": "class 1"}
{"MUTATION ANNOTATION": "G1C C27G", "CATEGORY": "class 0"}
{"MUTATION ANNOTATION": "A13U G56A", "CATEGORY": "class 1"}
{"MUTATION ANNOTATION": "A23C C33U", "CATEGORY": "class 1"}
{"MUTATION ANNOTATION": "C45U A51C", "CATEGORY": "class 1"}
{"MUTATION ANNOTATION": "G2A G25U", "CATEGORY": "class 0"}
{"MUTATION ANNOTATION": "U36C U64C", "CATEGORY": "class 1"}
{"MUTATION ANNOTATION": "C45A G48U", "CATEGORY": "class 1"}
{"MUTATION ANNOTATION": "C66U G68C", "CATEGORY": "class 1"}
{"MUTATION ANNOTATION": "A40C A59C", "CATEGORY": "class 1"}
{"MUTATION ANNOTATION": "A15G U55G", "CATEGORY": "class 1"}
{"MUTATION ANNOTATION": "C7A U20C", "CATEGORY": "class 0"}
{"MUTATION ANNOTATION": "G4U A51U", "CATEGORY": "class 1"}
{"MUTATION ANNOTATION": "U21G G31U", "CATEGORY": "class 0"}
{"MUTATION ANNOTATION": "C6U C12A", "CATEGORY": "class 1"}
{"MUTATION ANNOTATION": "C57U C66G", "CATEGORY": "class 1"}
{"MUTATION ANNOTATION": "G5C G30U", "CATEGORY": "class 0"}
{"MUTATION ANNOTATION": "G31A A42G", "CATEGORY": "class 1"}
{"MUTATION ANNOTATION": "A10U G19A", "CATEGORY": "class 0"}
{"MUTATION ANNOTATION": "G56A U69C", "CATEGORY": "class 1"}
{"MUTATION ANNOTATION": "G1A A13U", "CATEGORY": "class 0"}
{"MUTATION ANNOTATION": "U21G G41C", "CATEGORY": "class 0"}
{"MUTATION ANNOTATION": "C6G C63G", "CATEGORY": "class 0"}
{"MUTATION ANNOTATION": "G5C G30A", "CATEGORY": "class 0"}
{"MUTATION ANNOTATION": "U46G U62G", "CATEGORY": "class 1"}
{"MUTATION ANNOTATION": "C12U G47U", "CATEGORY": "class 1"}
{"MUTATION ANNOTATION": "A23C G68C", "CATEGORY": "class 1"}
{"MUTATION ANNOTATION": "G30C C33U", "CATEGORY": "class 1"}
{"MUTATION ANNOTATION": "A8C U62C", "CATEGORY": "class 1"}
{"MUTATION ANNOTATION": "G3A C63A", "CATEGORY": "class 1"}
{"MUTATION ANNOTATION": "U64A U67G", "CATEGORY": "class 1"}
{"MUTATION ANNOTATION": "A60G C63U", "CATEGORY": "class 1"}
{"MUTATION ANNOTATION": "C34A U64A", "CATEGORY": "class 1"}
{"MUTATION ANNOTATION": "G4U U67C", "CATEGORY": "class 1"}
{"MUTATION ANNOTATION": "G58U G65C", "CATEGORY": "class 1"}
{"MUTATION ANNOTATION": "A23G G30C", "CATEGORY": "class 1"}
{"MUTATION ANNOTATION": "C35U U44C", "CATEGORY": "class 1"}
{"MUTATION ANNOTATION": "G30U G37C", "CATEGORY": "class 0"}
{"MUTATION ANNOTATION": "G47C G65C", "CATEGORY": "class 1"}
{"MUTATION ANNOTATION": "G1A C7G", "CATEGORY": "class 0"}
{"MUTATION ANNOTATION": "G4C C54U", "CATEGORY": "class 1"}
{"MUTATION ANNOTATION": "C33U G65U", "CATEGORY": "class 1"}
{"MUTATION ANNOTATION": "C7U U36G", "CATEGORY": "class 0"}
{"MUTATION ANNOTATION": "G56C", "CATEGORY": "class 1"}
{"MUTATION ANNOTATION": "C7A C12A", "CATEGORY": "class 0"}
{"MUTATION ANNOTATION": "A13G C18A", "CATEGORY": "class 0"}
{"MUTATION ANNOTATION": "U21G U55A", "CATEGORY": "class 1"}
{"MUTATION ANNOTATION": "A60C U61A", "CATEGORY": "class 1"}
{"MUTATION ANNOTATION": "U21A G31U", "CATEGORY": "class 1"}
{"MUTATION ANNOTATION": "C12A G17A", "CATEGORY": "class 0"}
{"MUTATION ANNOTATION": "A23U C57A", "CATEGORY": "class 0"}
{"MUTATION ANNOTATION": "G19U G68U", "CATEGORY": "class 1"}
{"MUTATION ANNOTATION": "C54U G58C", "CATEGORY": "class 1"}
{"MUTATION ANNOTATION": "A10U U20G", "CATEGORY": "class 0"}
{"MUTATION ANNOTATION": "G3C C63A", "CATEGORY": "class 0"}
{"MUTATION ANNOTATION": "G31A G56U", "CATEGORY": "class 1"}
{"MUTATION ANNOTATION": "G1C C35A", "CATEGORY": "class 0"}
{"MUTATION ANNOTATION": "C22U U53C", "CATEGORY": "class 0"}
{"MUTATION ANNOTATION": "A15G C18A", "CATEGORY": "class 0"}
{"MUTATION ANNOTATION": "A13U U69C", "CATEGORY": "class 1"}
{"MUTATION ANNOTATION": "A23G G28U", "CATEGORY": "class 0"}
{"MUTATION ANNOTATION": "A42G C45U", "CATEGORY": "class 1"}
{"MUTATION ANNOTATION": "G2C U64A", "CATEGORY": "class 0"}
{"MUTATION ANNOTATION": "G11A U36A", "CATEGORY": "class 0"}
{"MUTATION ANNOTATION": "U21A U36C", "CATEGORY": "class 1"}
{"MUTATION ANNOTATION": "G19C U38G", "CATEGORY": "class 0"}
{"MUTATION ANNOTATION": "G25C U49A", "CATEGORY": "class 0"}
{"MUTATION ANNOTATION": "C35G C57A", "CATEGORY": "class 0"}
